All figures here come from the nanobody polyreactivity screen of Harvey et al. (2022).

assay: yeast display, Sf9 membrane polyspecificity reagent, FACS + sequencing; frameworks hold sequencing errors
MEASURE: polyreactivity (PSR sort gate)

Please review the entries below; each comes with its answer.
Lookup: # get_value(readout='polyreactivity (PSR sort gate)', item= QVQLVESGGGLVQAGGSRRLSCAASGRIFTTYAMGWYRQAPGKERELVAAITRNGGRTYYADSVKGRFTLSRDNAKNTVYVPMHSLKPEDTAVYYCAAVYRSFGKVYGMDYWGQGTQVTVSS )
Found: high polyreactivity

Lookup: # query: polyreactivity (PSR sort gate) of entry QVQLVESGGGLVQAGGSLRLSCAASGRTFVRYAMGWYRQAPGKERELVAAITSGGSTYADSVKGRFTISRDNAKNTVYLQMNSLKPEDTAVYYCAARRYPSYGSWGQGTQVTVSS
Found: low polyreactivity

Lookup: Would you kindly share the measured polyreactivity (PSR sort gate) for QVQLVESGGGLVQAGGSLRLSCAASGSTSDTNVMGWYRQPPAKERELVAAISNDDDRTYYADSVKGRFTSSRDNAKNTVYLQMNSVKPEDTAVYYCATADDYPGDDYLEGGYWGQGTQVTVSS ?
Found: low polyreactivity

Lookup: Requested read-out: polyreactivity (PSR sort gate). Entry: QVQLVESGGGLVQAGGSLRLSCAASGRIFRSNAMGWYRQAPGKERELVATITRSGGSTYYADSVKGRFTISRDNAKNTVYLQMNSLKPEDTAVYYCNAVFGSAYRAQRIMGYWGQGTQVTVSS
Found: high polyreactivity

Now look at this one.
Lookup: Query: polyreactivity (PSR sort gate); subject: QVQLVESGGGLVQAGGSLRLSCAASGRIFPVYAMGWYRQAPGKERELVAAISKRDGSTSYADSVKGRFTISRDNAKNTVYLEMNSLKPEDTAVYYCAATYLLERPTSIHPRYDYWGQGTQVTVSS
Found: low polyreactivity

###

assay: yeast display, Sf9 membrane polyspecificity reagent, FACS + sequencing; frameworks hold sequencing errors
MEASURE: polyreactivity (PSR sort gate)

Here's what some known entries look like.
Lookup: Which polyreactivity (PSR sort gate) value is on record for QVQLVESGGGLVQAGGSLRLSCAASGSIFYWYAMGWYRQAPGKERELVAAISGSGGTTYYADSVKGRFTISRDNAKNTVYLQMNSLKPEDTAVYYCATRGWYLGSRGYRTRYGYWGQGTQVTVSS ?
Found: high polyreactivity

Lookup: Which polyreactivity (PSR sort gate) is reported for this sequence? QVQLLESGGAIVQAGGSHRLSCAASGSIFTHYAMGWYRQATGKERELVAGITSSGGSTYADSVKGRFTISRDNAKNSVYLQMISLKPEDTAVYYCAAEQLRSRLIEYDYWGQGTQVTVSS
Found: low polyreactivity

Lookup: I'd like to know its polyreactivity (PSR sort gate). The sequence in question is QVQLVESGGGLVQAGGSLRLSCAASGRIFYYYAMGRYRQAPGKERELVAAITQSGGSTYYADSVKGRFTISRDNAKNTVYLQMNSLKPEDTAVYYCNAVLSSNTKWRYPGDYWGQGTQVTVSS
Found: low polyreactivity

Lookup: // returns reported polyreactivity (PSR sort gate) for input QVQLVESGGGLVQAGGSLRLSCAASGSIFSTYAMGWYRQAPGKERELVAAISRSGGSTYYADSVKGRFTISRDNAKNTVFLQMNSLKPEDTAVYYCAKVGRRQRYDYWGQGTQVTVSS
Found: high polyreactivity

Please look at the following sequence next.
Lookup: I would be grateful if you could share the reported polyreactivity (PSR sort gate) for QVQLVESGGGLVQAGGSLRLSCAASGFIFQYFAMGWYRQAPGKERELVAGITSGVRPYYADSLKGRFTISRDNAKNTVYLQMNSLKPEDTAVYYCARLDSAAEPRQYDYWGQGTQVTVSS .
Found: high polyreactivity

###

experiment: yeast display, Sf9 membrane polyspecificity reagent, FACS + sequencing; frameworks hold sequencing errors
MEASURE: polyreactivity (PSR sort gate)

Example results:
Lookup: I would be grateful if you could share the reported polyreactivity (PSR sort gate) for QVQLVESGGGLVQAGGSLRLTCAASGFTFARYAMGWYRQAPGKERELVAAISSNDNTSYADSVKGRFTISRDNAKNTVYLQMNSLKPEDTAVYDCAKKRYHWYGRYYYWGQGTQLTVSS .
Found: high polyreactivity

Lookup: Please look up its polyreactivity (PSR sort gate): QVQLVESGGGLVQAGGSLRLSCAASGRIFLRNAMGWYRQAPGKERELVAAISSSGGRTYYADSVKGRFTISRDNAKNTVYLQMNSLKPEDTAVYYCNARWHGSFDYWGQGTQVTVSS
Found: low polyreactivity

Lookup: I have this sequence here, QVQLVESGGRLVQAGGSLRLSCAASGRTFIKYAMGWYRQAPGKERELVAAISRNGGSTNYADSVKGRFTISRDNAKNTVYLQMNSLKPEDTAVYYCAAVGTVSRTVGYNYWGQGTQVTVSS , and I need its recorded polyreactivity (PSR sort gate).
Found: high polyreactivity

Lookup: Quick one: polyreactivity (PSR sort gate) for QVQLVESGGGLVQAGGSLRLSCAASGIIFFDYAMGWYRQAPGKDRELVAAISSGGGNTYYADSVKGRFTISRDNAKNTVYLQMNSLKPEDSAVYYCAAEPYIYGEQGAYDYWGQGTQVTVSS ?
Found: low polyreactivity

Lookup: Which polyreactivity (PSR sort gate) is listed for QVQLVESGGGLVQAGGSLRLSCAASGRILYLYTMGWYRQAPGKERELVAAISRGGSTYYADSVKGRFTISRDNAKNTVYLQMNSLKPEDTAVYYCSADARGYQFNYWGQGTLVTVSS ?
Found: high polyreactivity

Next:
Lookup: Reported polyreactivity (PSR sort gate), sequence QVQLVESGGGLVQAGGSLRLSCAASGLIFSRNAMGWYRQAPGKERELVAAISTGGSTYYADSVKGRFTISRDNAKNTVYLQMNSLKPEATAVYDCAAAPGYIYEYWGQGTQVTVSS : ____
Found: low polyreactivity

Lookup: Recorded polyreactivity (PSR sort gate) for EVQLVESGGGLVQAGGSLRLSCAASGRIFYTNTMGWYRPAPGKERELVATGSTYYADSVKGRFTISRDNAKNTVYLQMDSLKPEDTAVYYCAKRGDFLTKRYESGSAASDYLGQGTQVTVSS , please?
Found: low polyreactivity

Lookup: Query: polyreactivity (PSR sort gate); subject: QVQLVESGGGLVQAGGSLRLSCVASGRIFARNAMGWYRQAPGKERELVAAISGSGVRTYYADSVKGRFTISRDNAKNTVYLQMNSLKPEDTAVYYCNAVSGGHRSRYGYWGQGTQVTVSS
Found: high polyreactivity

Lookup: Field request: polyreactivity (PSR sort gate) | item: QVQLVESGGGLVQAGGSLRLSCAASGSIFKYYAMGWYRQAPGKERELVAAISSGGITNYADSVKGRFTISRDNAKNTVYLQMNSLKPEDTAVYYCAARDYVRLGLYDYDYWGQGTQVTVSS
Found: low polyreactivity

Lookup: Looking for the measured polyreactivity (PSR sort gate) of HDQLVESGGGLVQAGGSLRLSCAASGFTFLDYAMGWSRKAPGKERELVASISSSGGSTRYADSVKGRFTISRDNAKNTVYLQMKSLKPQDTAVYYCNAQIAEVPNDYWGQGTPVTVSS , can you help?
Found: low polyreactivity

Lookup: Consider the sequence QVQLVESGGGLVQAGGSLRLSCAASEGWYRQAPGKERELVAAISYIGGSTYYADSVKGRFTISRDNAKNTVYLQMNSLKPEDTAVYYCAKGYPDPQWGGVLAYDYWGQGTQVTVSS and give its measured polyreactivity (PSR sort gate).
Found: low polyreactivity

###

assay: yeast display, Sf9 membrane polyspecificity reagent, FACS + sequencing; frameworks hold sequencing errors
MEASURE: polyreactivity (PSR sort gate)

Lookup: Item under review: QVQLVESGGGLVQAGGSLRLSCAASGRTFSRNAMGWYRQAPGKEREFVASISRSGTSTYYADSVKGRFTISRDNAKNTVYLHMNSLKPEDTAVYYCAKTYASSQGYDYWGLGTQVTVSS . Reported polyreactivity (PSR sort gate)?
Found: high polyreactivity

Lookup: Sample QVQLVESGGGLVQAGGSLRLSCAASGSTFIPYAMGWYRQAPGKERELVAAIRGGDGSTYYADSVKGRFTISRDNAKNTVYLQMNSLKPEDTAVYYCAADTVITAYFYRFWRYNYWGQGTQVTVSS — what was its polyreactivity (PSR sort gate)?
Found: low polyreactivity

Lookup: Which polyreactivity (PSR sort gate) reading was recorded for the sequence QVQLVESGGGLVQAGGSLRLSCAASGSTFDSYAMGWYRQAPGKERELVAAITTTGGSTFYADSVKGRFTISRDNAKNTVYLQMNSLKPEDTAVYYCADDDGWQEFEYWGQGTQVTVSS ?
Found: low polyreactivity

Lookup: State the recorded polyreactivity (PSR sort gate) for this entry: QFQLVESGGGLVQAGGSLRLSCAASGFIFFNYAMGWYRQAPGKERELVASINWSTGSTYADSVKGRFTISRDNAKNTVYLQMNSLKPEDSAVYYCNTDHRRVAIPGGYWGQGTQVTVSS
Found: low polyreactivity

Could you now consider this next sequence?
Lookup: Please look up its polyreactivity (PSR sort gate): QVQLVESGGGLVQAGGSLRLSCAAYGSTFRTNAMGWYRQAPGKERELVAAISQRGGSTYYADSVKGRFTISRDNAKNTVYLQMNSLKPEDTGVYYCAARRYAYQSGGTLLTDDYWGQGTQVTVSS
Found: high polyreactivity
